- System: SK-MEL-5 melanoma
- PROCEDURE_TEXT: NCI-60 one-dose screen, 48 h
- EXPERIMENTAL_PARAMETERS: 10 µM unless noted
This is part of a sample that, as a whole, favours compounds with a hit. Of some 83,000 tested, about 20% had one in any assay. Activity calls are given as the source filed them. The calls were made as follows: active = growth percent below 10; inactive = the rest.
Outcome codes: YES (active), NO (inactive)

{"COMPOUND": "O=C(Cc1ccc(F)c(F)c1)Nc1cc(C2(C(F)(F)F)CC2)nn1Cc1ccccc1", "GROUP": "YES"}
{"COMPOUND": "CC(C)(C)OC(=O)Nc1ccc2c(c1)C(NC(=O)Nc1cccc(C#N)c1)CC(C)(C)O2 (centres undefined)", "GROUP": "YES"}
{"COMPOUND": "O=C(NC(Cc1nnc2n(Cc3ccccc3)c(=O)c3c4c(sc3n12)CCCC4)c1ccc(Cl)cc1)c1ccccc1 (centres undefined)", "GROUP": "NO"}
{"COMPOUND": "N#Cc1c(N)nn(C(=O)c2ccc(NC(=O)c3ccccn3)cc2)c1-c1ccc(Cl)cc1", "GROUP": "NO"}
{"COMPOUND": "Cc1cc(C)c2c(-c3nnc(N)s3)cc(=O)oc2c1", "GROUP": "NO"}
{"COMPOUND": "Cc1c(C)c2c(c(C)c1OCC(=O)O)CC[C@@](C)(CCC[C@@H](C)CCC[C@@H](C)CCCC(C)C)O2", "GROUP": "YES"}
{"COMPOUND": "CCN1C(=O)N(CC)C2Nn3c(s/c(=C\\c4ccc(Cl)cc4Cl)c3=O)=NC21 (centres undefined)", "GROUP": "NO"}
{"COMPOUND": "COC(=O)[C@]12CC[C@@H](C)[C@H](C)[C@@H]1C1=CC[C@@H]3[C@@]4(C)C(C=O)=C[C@@](C)(COS(C)(=O)=O)[C@@H]4C(=O)C[C@@]3(C)[C@]1(C)CC2", "GROUP": "NO"}
{"COMPOUND": "C[n+]1cc2cc(C(N)=O)[nH]c3c(=N)c(Cl)c(N)c1c23", "GROUP": "NO"}
{"COMPOUND": "CCN(CC)CCn1nc2c3c(cccc3c1=O)-c1ccccc1-2", "GROUP": "YES"}
{"COMPOUND": "COc1cc2c(cc1-c1c(C)noc1C)ncc1nc(C3CCCCC3)n(C3CCC(OC(F)F)CC3)c12 (centres undefined)", "GROUP": "YES"}
{"COMPOUND": "O=[N+]([O-])c1ccc(N2c3ccncc3Sc3ccncc32)cc1", "GROUP": "NO"}
{"COMPOUND": "COc1ccc(-c2nc(SCCC(C)C)nc(N/N=C\\c3ccccc3O)c2C#N)cc1", "GROUP": "NO"}
{"COMPOUND": "CN(c1ccccc1)c1ccc2c(c1)OCCC21CC1Nc1cnccc1C(=O)O (centres undefined)", "GROUP": "NO"}
{"COMPOUND": "COc1ccc(C(=O)COc2ccc(/C=C3\\Oc4ccccc4C3=O)cc2)cc1", "GROUP": "NO"}
{"COMPOUND": "CC1CC(C(C)(C)C)C(=O)C(C(C)(C)C)C1 (centres undefined)", "GROUP": "NO"}
{"COMPOUND": "CCOC(=O)/C=C/c1cc2cc(-c3csc4ccccc34)ccc2[nH]1", "GROUP": "NO"}
{"COMPOUND": "COc1ccc(C2c3ccc4ccccc4c3Oc3nc(C)[nH]c(=O)c32)cc1 (centres undefined)", "GROUP": "NO"}
{"COMPOUND": "COc1cccc(-c2nn(-c3ccccc3)cc2-c2ccnc(NCCNC(=O)c3ccccc3)c2)c1", "GROUP": "NO"}
